pEC50 by entry:
- Test system: NL-RLuc virus (recombinant HIV NL4-3 proviral clone with Renilla Luciferase) in MT-2 cells
- ASSAY REMARKS: Inhibition of HIV Replication (NL-RLuc luciferase reporter virus, MT-2 cells)
- Type: cell-based
- MEASUREMENT CONDITIONS: MT2, 120 h, read-out: Activity
pEC50: −log10 of the molar value.

Cc1nc(C)c([C@H](OC(C)(C)C)C(=O)O)c(N2CCC(C)(C)CC2)c1-c1ccc(CN(Cc2ccc(F)cc2)S(C)(=O)=O)cc1 [Example 34]    > 7.00
Cc1nc(C)c([C@H](OC(C)(C)C)C(=O)O)c(N2CCC(C)(C)CC2)c1-c1ccc(CNCc2ccccc2)cc1 [Example 14]    > 7.00
Cc1nc(C)c([C@H](OC(C)(C)C)C(=O)O)c(N2CCC(C)(C)CC2)c1-c1ccc(CN(Cc2ccc(F)cc2)C(=O)C2CC2)cc1 [Example 40]    > 7.00
Cc1nc(C)c([C@H](OC(C)(C)C)C(=O)O)c(N2CCC(C)(C)CC2)c1-c1ccc(CNCCC(C)(C)C)cc1 [Example 6]    6.00 to 7.00
Cc1cc(C(=O)N(Cc2ccc(F)cc2)Cc2ccc(-c3c(C)nc(C)c([C@H](OC(C)(C)C)C(=O)O)c3N3CCC(C)(C)CC3)cc2)c(C)o1 [Example 29]    > 7.00
COC(=O)N(Cc1ccc(F)cc1)Cc1ccc(-c2c(C)nc(C)c([C@H](OC(C)(C)C)C(=O)O)c2N2CCC(C)(C)CC2)cc1 [Example 32]    > 7.00
Cc1nc(C)c([C@H](OC(C)(C)C)C(=O)O)c(N2CCC(C)(C)CC2)c1-c1ccc(CNCc2ccc(F)cc2)cc1 [Example 4]    > 7.00
Cc1nc(C)c([C@H](OC(C)(C)C)C(=O)O)c(N2CCC(C)(C)CC2)c1-c1ccc(CN(Cc2ccc(F)cc2)C(=O)c2ccccc2C(F)(F)F)cc1 [Example 39]    > 7.00
COc1ccc(C(=O)N(Cc2ccc(F)cc2)Cc2ccc(-c3c(C)nc(C)c([C@H](OC(C)(C)C)C(=O)O)c3N3CCC(C)(C)CC3)cc2)cc1 [Example 45]    > 7.00
CC(=O)N(Cc1ccc(F)cc1)Cc1ccc(-c2c(C)nc(C)c([C@H](OC(C)(C)C)C(=O)O)c2N2CCC(C)(C)CC2)cc1 [Example 24]    > 7.00

Req: // pEC50 lookup, key: Cc1ccc(CNCc2ccc(-c3c(C)nc(C)c([C@H](OC(C)(C)C)C(=O)O)c3N3CCC(C)(C)CC3)cc2)cc1 [Example 16]
Resp: > 7.00

Req: Now give it for Cc1nc(C)c([C@H](OC(C)(C)C)C(=O)O)c(N2CCC(C)(C)CC2)c1-c1ccc(CNCc2ccc(C(=O)O)cc2)cc1 [Example 19] too.
Resp: < 6.00

Req: Now give it for CCC(=O)N(Cc1ccc(F)cc1)Cc1ccc(-c2c(C)nc(C)c([C@H](OC(C)(C)C)C(=O)O)c2N2CCC(C)(C)CC2)cc1 [Example 22] too.
Resp: > 7.00

----------
- Test system: NL-RLuc virus (recombinant HIV NL4-3 proviral clone with Renilla Luciferase) in MT-2 cells
- ASSAY REMARKS: Inhibition of HIV Replication (NL-RLuc luciferase reporter virus, MT-2 cells)
- Format: cell-based
- MEASUREMENT CONDITIONS: MT2, 120 h, read-out: Activity
- Source text: Inhibition of HIV Replication: A recombinant NL-RLuc proviral clone was constructed in which a section of the nef gene from NL4-3 was replaced with the Renilla Luciferase gene. […] In addition, the luciferous reporter provides a simple and easy method for quantitating the extent of virus growth and consequently, the antiviral activity of test compounds. […] Luciferase was quantitated using the Dual Luciferase kit from Promega (Madison, Wis.). […]
EC50 by entry:

Cc1nc(C)c([C@H](OC(C)(C)C)C(=O)O)c(N2CCC(C)(C)CC2)c1-c1ccc(CN2CCc3ccccc3C2)cc1    < 100 nM
Cc1nc(C)c([C@H](OC(C)(C)C)C(=O)O)c(N2CCC(C)(C)CC2)c1-c1ccc(CNCCC2CCCCC2)cc1    100 to 1000 nM
Cc1nc(C)c([C@H](OC(C)(C)C)C(=O)O)c(N2CCC(C)(C)CC2)c1-c1ccc(CNCCc2ccc(F)cc2)cc1    < 100 nM

Req: // EC50 lookup, key: Cc1nc(C)c([C@H](OC(C)(C)C)C(=O)O)c(N2CCC(C)(C)CC2)c1-c1ccc(CNCc2ccc(Cl)c(Cl)c2)cc1
Resp: < 100 nM

Req: Now give it for Cc1nc(C)c([C@H](OC(C)(C)C)C(=O)O)c(N2CCC(C)(C)CC2)c1-c1ccc(COCc2ccc(F)cc2)cc1 too.
Resp: > 1000 nM

Req: Now give it for Cc1nc(C)c([C@H](OC(C)(C)C)C(=O)O)c(N2CCC(C)(C)CC2)c1-c1ccc(CN(Cc2ccc(F)cc2)C(=O)c2cccs2)cc1 too.
Resp: < 100 nM

Req: Now give it for Cc1nc(C)c([C@H](OC(C)(C)C)C(=O)O)c(N2CCC(C)(C)CC2)c1-c1ccc(CN2CCOCC2)cc1 too.
Resp: 100 to 1000 nM

Req: Now give it for Cc1nc(C)c([C@H](OC(C)(C)C)C(=O)O)c(N2CCC(C)(C)CC2)c1-c1ccc(CSCc2ccc(F)cc2)cc1 too.
Resp: < 100 nM

----------
- Tested on: NL-RLuc virus (recombinant HIV NL4-3 proviral clone with Renilla Luciferase) in MT-2 cells
- ASSAY REMARKS: Inhibition of HIV Replication (NL-RLuc luciferase reporter virus, MT-2 cells)
- Format: cell-based
- MEASUREMENT CONDITIONS: MT2, 120 h, read-out: Activity
ATTRIBUTE MEASURED: EC50

Req: // EC50 lookup, key: Cc1nc(C)c([C@H](OC(C)(C)C)C(=O)O)c(N2CCC(C)(C)CC2)c1-c1ccc(CN(Cc2ccc(F)cc2)C(=O)C(C)(C)C)cc1
Resp: < 100 nM

Req: Now give it for Cc1nc(C)c([C@H](OC(C)(C)C)C(=O)O)c(N2CCC(C)(C)CC2)c1-c1ccc(CN(Cc2ccc(F)cc2)C(=O)C2CCCC2)cc1 too.
Resp: < 100 nM

Req: Now give it for COC(=O)c1ccc(CNCc2ccc(-c3c(C)nc(C)c([C@H](OC(C)(C)C)C(=O)O)c3N3CCC(C)(C)CC3)cc2)cc1 too.
Resp: 100 to 1000 nM

Req: Now give it for COc1ccccc1CCNCc1ccc(-c2c(C)nc(C)c([C@H](OC(C)(C)C)C(=O)O)c2N2CCC(C)(C)CC2)cc1 too.
Resp: < 100 nM

Req: Now give it for Cc1nc(C)c([C@H](OC(C)(C)C)C(=O)O)c(N2CCC(C)(C)CC2)c1-c1ccc(CN(Cc2ccc(F)cc2)C(=O)c2ccc(F)cc2)cc1 too.
Resp: < 100 nM

Hello, the source for this data is patent US20180170903A1, in case you need it.
